Target: POU2 (OCT2 POU domain);BOB1 (OBF1, OCA-B) (human;human, UniProt P09086;Q16633 175-386;1-256, |)
Sequence 1: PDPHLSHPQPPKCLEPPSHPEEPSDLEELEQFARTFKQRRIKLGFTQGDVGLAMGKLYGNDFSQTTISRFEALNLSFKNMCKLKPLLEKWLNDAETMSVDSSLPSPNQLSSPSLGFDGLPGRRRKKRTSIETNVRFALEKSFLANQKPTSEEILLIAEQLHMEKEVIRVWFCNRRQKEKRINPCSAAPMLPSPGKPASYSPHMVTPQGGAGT
Sequence 2: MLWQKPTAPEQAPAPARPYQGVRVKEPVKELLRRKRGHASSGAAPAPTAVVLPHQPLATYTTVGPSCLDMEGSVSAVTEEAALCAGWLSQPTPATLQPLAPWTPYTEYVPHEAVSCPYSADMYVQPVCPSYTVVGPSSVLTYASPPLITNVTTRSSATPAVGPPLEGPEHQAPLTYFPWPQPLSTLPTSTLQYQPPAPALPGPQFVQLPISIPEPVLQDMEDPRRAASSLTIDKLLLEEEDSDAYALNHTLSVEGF
Test: EMSA-SELEX-seq; with BOB1 (ternary complex band); 20 mM Tris-HCl pH 7.6, 140 mM NaCl, 10% glycerol, 0.5 mM EDTA, 0.05% Triton X-100, 0.1 mg/mL BSA, 0.1 mg/mL poly(dI-dC), 5 mM DTT, room temperature, 20 min; high values mean tight binding
Settings: protein: recombinant;recombinant; copies: 1;1; dsDNA, one strand shown
The sequences listed here are annotated with their binding signal.

Known binding signal results, listed for orientation:
- macromolecule.sequence: "ATACAAAG"
  binding signal: "0.09 % of ANNNNAAN 8-mers"
- macromolecule.sequence: "AACGCAAG"
  binding signal: "0.0281 % of ANNNNAAN 8-mers"

Task: # binding signal lookup, item "AGTTAAAT"
Result: 0.127 % of ANNNNAAN 8-mers

Task: Also need "AGTTGAAT" , thanks.
Result: 0.0834 % of ANNNNAAN 8-mers

Task: Now the sequence "ACAACAAG"
Result: 0.014 % of ANNNNAAN 8-mers

Task: Follow-up entry: "ATTGCAAG"
Result: 0.0363 % of ANNNNAAN 8-mers

Task: Query "AAGCCAAC" next
Result: 0.0107 % of ANNNNAAN 8-mers

Task: Moving on to the next sequence: "ACCAAAAG"
Result: 0.019 % of ANNNNAAN 8-mers

Task: // same read-out, input: "ATCGTAAC"
Result: 0.0322 % of ANNNNAAN 8-mers

Task: Also "AGAAAAAT" , if possible.
Result: 0.09 % of ANNNNAAN 8-mers

Task: Another sequence: "AAATGAAC"
Result: 0.141 % of ANNNNAAN 8-mers

Task: Here is the next sequence: "ATTCAAAG"
Result: 0.242 % of ANNNNAAN 8-mers

Task: Entry "ATGCTAAA" please
Result: 0.0817 % of ANNNNAAN 8-mers

Task: Now the sequence "AAGTAAAG"
Result: 0.0545 % of ANNNNAAN 8-mers

Task: Then "AAAAAAAC" ?
Result: 0.0512 % of ANNNNAAN 8-mers

Task: Then "AACTAAAG" ?
Result: 0.0355 % of ANNNNAAN 8-mers
